assay remarks: qHTS profiling for inhibitors of Plasmodium falciparum (3D7) proliferation (AID 743322);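 further: infected erythrocytes exposed to compound for 72 h before lysis; 100% = DMSO vehicle wells and 0% = 0.29 µM artemisinin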
test conditions: P. falciparum 3D7 proliferation; at 28.7 µM (top of the series) unless noted
Listed below: remaining parasite growth % (stronger effect = lower value) values for each entry.
Give just the number in %; leave the unit off.

Please review the following examples before continuing.
CC(C)(C)c1[nH]cnc1C=c1[nH]c(=O)c(=Cc2ccccc2)[nH]c1=O = 58.1
C=CCON=C(C[C@H]1O[C@@H]2O[C@]3(C)CC[C@@H]4[C@H](C)CC[C@@H]([C@H]1C)[C@@]24OO3)[C@H]1O[C@@H]2O[C@]3(C)CC[C@H]4[C@H](C)CC[C@@H]([C@@H]1C)[C@@]24OO3 = -1.46
CC(C)[C@H]1C(=O)N[C@H](CO)Cc2c[nH]c3cccc(c23)N1C = 107
CC(C)[C@]12O[C@H]1[C@@H]1O[C@]13[C@]1(O[C@H]1C[C@H]1C4=C(CC[C@@]13C)C(=O)OC4)[C@@H]2O = 103

Shift focus to the following entry.
Let me know recorded remaining parasite growth % (stronger effect = lower value) for "CC(=O)Nc1ccc(OC[C@](C)(O)C(=O)Nc2ccc([N+](=O)[O-])c(C(F)(F)F)c2)cc1" , thanks. 102
